Test: growth inhibitors of H69AR lung tumor, primary screen, human, duplicate replicates (AID 580);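 note: 100% = mean luminescence of untreated wells and 0% = no signal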
Details: H69AR lung tumor cells viability, ATP luminescence, 72 h; at 10 µM; stronger effect = lower value
propertyName: viability (%)
Answers are plain numbers, in %.

Some solved entries appear below for comparison.
Cn1cccc1Cc1nnc(SCC(=O)Nc2ccccc2F)n1CCc1ccccc1 | 83.7
O=C(Cn1cnc2c(nnn2-c2ccc(F)cc2)c1=O)NCc1ccco1 | 84.8
Cc1nc2ccc(S(=O)(=O)NCC(=O)N3CCCCC3)cc2s1 | 87.4

Give measured viability for every item shown.
1. Cc1cccc(NC(=O)CSc2nnc(-c3ccccc3C)o2)c1
2. Cc1ccc(-c2[nH]nc3c2C(c2ccoc2)C(C#N)=C(N)O3)cc1C (configuration not stated)
3. CCN(CC)S(=O)(=O)c1ccc(NC(=O)Cn2cnc3ccccc3c2=O)cc1
4. CC(=O)Nc1ccc(S(=O)(=O)N2CCN(c3cc(C)nc4ccccc34)CC2)cc1
5. N#CCOc1nc(N2CCOCC2)nc(N2CCOCC2)n1
6. O=C(O)c1ccc2noc(-c3ccccc3)c2c1

1: 75.4; 2: 86.7; 3: 93.8; 4: 87.1; 5: 90.8; 6: 97.8

###

Assay: reversal of MRP1-mediated doxorubicin resistance, pilot screen, H69AR cells, doxorubicin co-treatment (AID 601)
Details: H69AR cells + 2 uM doxorubicin, CellTiter-Glo, 72 h; measured here: viability with 2 uM doxorubicin; at 10 µM; stronger effect = lower value
propertyName: viability (%)
Numbers only, in %.

C=CCn1c(=O)[nH]c2cc(C(=O)N3CCN(c4ccc(C(C)=O)cc4)CC3)ccc2c1=O | 79
CN(Cc1cnn(C)c1)C(=O)c1cc2ccccc2oc1=O | 89.9
Fc1cccc(Cl)c1Cn1nnc2c(NCc3ccccn3)ncnc21 | 91.1
C#CC1(O)CC(C)N(C)C(C)C1 (stereo unspecified) | 78.3
Nc1nc(N2CCN(C/C=C/c3ccccc3)CC2)nc2ccccc12 | 86.1

Kindly consider the entry below.
Note viability for the molecule shown: Cc1ccn2cc(CCNC(=O)CC(C)(C)C)nc2c1
88.6

###

Experiment: 384-well plate pilot, post-Golgi transport modulator project, inhibition of yeast transport mutant growth (AID 636)
Conditions: absorbance 615 nm, about 18 h, stronger effect = higher value
propertyName: inhibition (%)
Numbers only, in %.

CCOC(=O)N1CCC(NC(=O)C2CCC(Cn3c(=O)[nH]c4ccccc4c3=O)CC2)CC1 (stereo unspecified) | -5.71
CC1CCc2c(sc3c2C2=NS(=O)(=O)CCN2C=N3)C1 (stereo unspecified) | -9.73
Cc1cccc2cc(C#N)c(NCCNC(=O)NC3CCCCC3)nc12 | -2.37
CNC(=O)Oc1ccc2c(c1)[C@]1(C)CCN(C)[C@@H]1N2C | -3.12
Oc1cccc2ccc(Nc3ccccn3)nc12 | -4.16
Cc1occc1-c1nnc(SCC(=O)N2CCOCC2)n1Cc1ccco1 | -2.93
Cc1nc(-c2ccccc2)sc1C(N)=O | -3.29
CCn1c(CCNC(=O)c2cccs2)nnc1SCC(=O)c1ccc(OC)cc1 | -1.71

The following compounds each have a reported value; give each one's inhibition.
1. CC(=O)c1c(C)[nH]c(C(=O)NC2=NCCS2)c1C
2. O=C(O)C1CCCN1C(=O)c1cccs1 (stereo unspecified)
3. CO[C@H]1C[C@@H]2CC[C@@H](C)[C@@](O)(O2)C(=O)C(=O)N2CCCC[C@H]2C(=O)O[C@H]([C@H](C)C[C@@H]2CC[C@@H](O)[C@H](OC)C2)CC(=O)[C@H](C)C=C(C)[C@@H](O)[C@@H](OC)C(=O)[C@H](C)C[C@H](C)C=CC=CC=C1C
4. Cc1ccc(S(=O)(=O)NC(=O)NN2CCCCCC2)cc1
5. COc1cc(C2c3c(n[nH]c3C)C(=O)N2c2ccc(C)cc2)ccc1O (stereo unspecified)
6. Cc1[nH]nc2c1C1(CCN(C(=O)c3ccccc3)CC1)C(C#N)=C(N)O2
7. COC(=O)c1cn(-c2ccccc2)nc1C(=O)OC
8. Cc1ccc(CCNC(=O)C2CCC(=O)N2C2CCCC2)cc1 (stereo unspecified)

[-3.51, 3.15, 93.6, -3.38, -3.87, 0.52, -4.8, -2.08]

Give inhibition for each listed item.
1. COc1cccc(C(c2nnnn2Cc2ccccc2)N2CCN(C(=O)c3ccco3)CC2)c1OC (stereo unspecified)
2. ON=C1/C(=N\O)CC2(C/C1=N/O)OCCO2
3. Cn1c2c(c(=O)n(C)c1=O)C(NC(=O)C(C)(C)C)(C(F)(F)F)C(=O)N2 (stereo unspecified)
4. O=c1c2ccccc2c(C=Nc2ccc(Cl)cn2)c(O)n1-c1cc(Cl)ccc1N1CCOCC1
5. O=C(Cn1ccc2ccccc2c1=O)NCCC(=O)N1CCN(C2CCCCC2)CC1

-1.84
-8.27
-6.62
-0.65
-3.2

###

Experiment: HUVEC growth inhibition – cell-based, human, primary screen (AID 575);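 note: 100% = median of untreated cell wells with 0.1% DMSO on each plate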
Settings: HUVEC proliferation, CellTiter-Glo luminescence, 72 h; at 10 µM; stronger effect = lower value
Kindly supply the reported viability values for the records listed here.
Answers are plain numbers, in %.

Some solved entries appear below for comparison.
CN(C)c1nc(N)nc(CSc2nnnn2-c2cccc3ccccc23)n1 | 99.9
CC(=O)c1ccccc1Oc1nc(CN2CCOCC2)nc2scc(-c3cccs3)c12 | 73.3
CCOc1ccc2c(O)csc2c1 | 96.2
O=C1NC(=O)C(CC(=O)N(c2ccccc2)C2(C(=O)NC3CCCC3)CCCCC2)N1 (centres undefined) | 100
COC(=O)c1cc2ccsc2n1CC(=O)N(C)c1ccccc1 | 90.2

// for each molecule in input: emit viability
1. CN1CCN(C2=Nc3ccccc3Oc3ccc(Cl)cc32)CC1
2. O=c1oc2cc(O)ccc2c2oc3cc(O)ccc3c12
3. O=C1CC(c2ccccc2)NC(=O)N1 (centres undefined)
4. Cc1c(C(=O)N2CCN(c3ccccc3)CC2)sc2ncnc(N3CCN(c4ccccc4)CC3)c12
5. CC(CCc1ccccc1)NC(=O)c1ccc(Br)o1 (centres undefined)
6. CCCCCC(=O)N1CC2(C)CN(C(=O)CCCCC)CC(C)(C1)C2=O
7. Cc1[nH]nc2c1C(c1ccc(F)cc1)C1=C(CC(C)(C)CC1=O)N2 (centres undefined)

[59.7, 85.1, 105, 82.5, 88.5, 96.9, 102]

###

Assay: reversal of MRP1-mediated doxorubicin resistance, pilot screen, H69AR cells, doxorubicin co-treatment (AID 601)
Details: H69AR cells + 2 uM doxorubicin, CellTiter-Glo, 72 h; measured here: viability with 2 uM doxorubicin; at 10 µM; stronger effect = lower value
propertyName: viability (%)
Numbers only, in %.

Examples from the recorded data:
Cc1ccc(-c2nnnn2CS(=O)(=O)c2ccccc2)cc1 | 91.1
CN(C)CCCN1c2ccccc2Sc2ccc(Cl)cc21 | 28.3

Quick batch: viability for everything below.
1. COc1ccc(C(=O)N2CCN(C(=O)c3ccco3)CC2)cc1OC
2. Cc1ccc(NC(=O)c2ccccc2F)nc1
3. Cc1ccccc1-n1nc(C)c2cc(C(=O)NCc3cccnc3)sc21
4. COc1cc(NC(=O)c2cc(-n3cnnc3)ccc2Cl)cc(OC)c1
5. O=C(CSc1nnc(-c2ccco2)n1CC1CCCO1)N1CCCCC1 (stereo unspecified)
6. CCOc1ccc2nc(NC(=O)CSc3nc4ccccc4c(=O)n3Cc3ccco3)sc2c1
7. CCOc1ncccc1C(=O)Nc1ccc(Cl)cc1

1: 91.1; 2: 97.2; 3: 59.4; 4: 83.7; 5: 92.7; 6: 45.4; 7: 83.2

Would you mind listing viability for each of the following compounds?
1. CN(CCCC(=O)Nc1ccncc1)S(=O)(=O)c1ccc(Cl)cc1
2. CCc1nnc(NC(=O)c2ccc(-c3cccc(C(F)(F)F)c3)o2)s1

[104, 80.2]

###

Assay: 384-well plate pilot, post-Golgi transport modulator project, inhibition of yeast transport mutant growth (AID 636)
Settings: absorbance 615 nm, about 18 h, stronger effect = higher value
propertyName: inhibition (%)
One number for each entry, in %.

Batch request: inhibition for each of the following molecules.
1. CCc1nnc(NC(=O)c2ccc(S(=O)(=O)N(CC(C)C)CC(C)C)cc2)o1
2. CCC[C@@H]1C[C@@H](C(=O)N[C@H]([C@@H](C)O)[C@H]2O[C@H](SC)[C@H](O)[C@@H](O)C2O)N(C)C1 (stereo not given in full)

1. 3.9
2. 0.52

###

Assay: 384-well plate pilot, post-Golgi transport modulator project, inhibition of yeast transport mutant growth (AID 636)
Details: absorbance 615 nm, about 18 h, stronger effect = higher value
Provide the recorded inhibition for the entries that follow.
Give bare numbers, in %.

Worked examples follow.
O=C(CSc1ccccc1C(=O)NCCCN1CCCC1=O)NCc1ccco1 | -3.6
CC(C)c1cc(C(=O)Nc2cccnc2)no1 | -7.73
CCOC(=O)Cc1nnc2c(Nc3ccccc3F)nc3nonc3n12 | -3.9
O=c1[nH]c2cc3c(cc2cc1C(c1nnnn1Cc1ccccc1)N1CCCc2ccccc21)OCO3 (centres undefined) | -3.73
Cc1c(NC(=O)c2nn(C)c(=O)c3ccccc23)c(=O)n(-c2ccccc2)n1C | -1.92

For the 6 compounds below, give their inhibition values.
1. CS(=O)(=O)N(CC(=O)N1CCN(c2cccc(Cl)c2)CC1)C1CCCCC1
2. COc1ccc(C)cc1S(=O)(=O)N(C)CC(=O)Nc1ccc2c(c1)OCO2
3. Cc1ccc(C)c(NS(=O)(=O)c2ccc(NC(=O)c3ccco3)cc2)c1
4. COc1cc(Cn2c(-c3nonc3N)nc3ccccc32)ccc1C
5. COc1ccc(NC(=O)Nc2ccccc2C)c(OC)c1
6. CC1CCN(C(=O)c2ccc(C(=O)N3CCC(C)CC3)cc2)CC1

-4.29
-4.67
-8.92
-3.92
-4.8
-0.66

Batch of 5 compounds: report inhibition for each.
1. Cn1c(SCc2ccccc2)nnc1C1CCCNC1 (centres undefined)
2. CCCC1(C(=O)OC)NC(c2cc(OC)c(OC)c(OC)c2)C2C(=O)N(CC)C(=O)C21 (centres undefined)
3. CCC(C)NC(=O)CSC1=Nc2ccccc2C2=NC(CC(=O)NCc3ccccc3)C(=O)N12 (centres undefined)
4. CC(C)c1nc(N2CCN(C(=O)c3ccco3)CC2)c2c3c(sc2n1)CCCC3
5. CC(=O)Nc1ccc(N=Cc2nc(-c3ccc(C)cc3)oc2O)cc1

[0, -4.93, -3.03, -0.53, 0]

For each of the items listed, what is its inhibition?
1. c1ccc(CSc2nnc(-c3cccs3)n2Cc2ccco2)cc1
2. CCOc1ccc2nc(SCC(=O)Nc3ncccn3)[nH]c2c1

1.37
-1.62

Give one value of inhibition per listed compound.
1. COc1cccc(CC(NC(C)=O)C(=O)NC2CCN(c3c4c(nc5ncnn35)CCC4)CC2)c1 (centres undefined)
2. Cc1ccc(-c2cn3cccnc3n2)cc1NC(=O)c1ccc(Br)o1
3. O=C(NC1CC1)C1CCC(=O)N1C1CCCC1 (centres undefined)

[-6.18, -0.39, -1.17]

Just for reference, PubChem BioAssay is where these values come from.
